Molecular target: T1, human CD22-ECD-His protein (human, UniProt P20273 20-687)
T1 construct: Made in house in HEK293E; also called hCD22-ECD-His; recombinant human CD22-ECD His protein; not shown: His tag
T1 sequence: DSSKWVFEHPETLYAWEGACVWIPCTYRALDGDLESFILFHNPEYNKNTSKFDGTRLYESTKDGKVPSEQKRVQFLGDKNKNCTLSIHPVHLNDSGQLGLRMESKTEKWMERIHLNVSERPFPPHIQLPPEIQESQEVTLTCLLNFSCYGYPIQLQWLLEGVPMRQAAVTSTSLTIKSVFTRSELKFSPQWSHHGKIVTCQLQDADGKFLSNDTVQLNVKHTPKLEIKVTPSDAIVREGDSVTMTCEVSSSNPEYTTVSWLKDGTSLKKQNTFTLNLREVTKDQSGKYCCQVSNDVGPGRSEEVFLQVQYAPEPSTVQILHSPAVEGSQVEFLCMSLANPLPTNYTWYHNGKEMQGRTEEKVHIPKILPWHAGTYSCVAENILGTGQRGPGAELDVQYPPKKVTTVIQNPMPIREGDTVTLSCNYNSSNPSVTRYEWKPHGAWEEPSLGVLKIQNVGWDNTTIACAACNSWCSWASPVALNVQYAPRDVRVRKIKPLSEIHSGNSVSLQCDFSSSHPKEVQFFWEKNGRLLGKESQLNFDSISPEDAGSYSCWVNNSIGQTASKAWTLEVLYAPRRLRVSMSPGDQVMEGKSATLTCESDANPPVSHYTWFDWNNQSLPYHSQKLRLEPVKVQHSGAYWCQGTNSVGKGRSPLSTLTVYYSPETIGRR
Test: ELISA, Ab 100.00 nM
Entries annotated with measured OD450
Write the number in OD450 without appending the unit.

BINDER	OD450 [OD450]
F1.200.11 (antibody, human IgG1, kappa, V domains shown, Human-murine chimeric IgG1, kappa) VH: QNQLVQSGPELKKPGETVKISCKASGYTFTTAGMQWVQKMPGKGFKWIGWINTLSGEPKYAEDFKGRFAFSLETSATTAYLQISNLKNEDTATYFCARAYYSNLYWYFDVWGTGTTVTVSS VL: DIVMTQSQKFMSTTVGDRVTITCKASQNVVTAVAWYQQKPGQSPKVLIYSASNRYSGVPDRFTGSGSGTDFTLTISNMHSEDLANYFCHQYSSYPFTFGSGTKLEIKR	2.34
F1.245.2 (antibody, human IgG1, kappa, V domains shown, Human-murine chimeric IgG1, kappa) VH: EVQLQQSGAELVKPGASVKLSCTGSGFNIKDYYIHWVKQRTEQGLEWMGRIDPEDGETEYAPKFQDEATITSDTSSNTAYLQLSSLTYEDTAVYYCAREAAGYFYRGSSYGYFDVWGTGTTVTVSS VL: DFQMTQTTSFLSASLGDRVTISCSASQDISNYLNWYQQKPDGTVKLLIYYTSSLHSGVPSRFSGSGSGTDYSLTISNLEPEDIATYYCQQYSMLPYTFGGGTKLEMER	2.7
F2.343.16 (antibody, human IgG1, lambda, V domains shown, Human-murine chimeric IgG1, lambda) VH: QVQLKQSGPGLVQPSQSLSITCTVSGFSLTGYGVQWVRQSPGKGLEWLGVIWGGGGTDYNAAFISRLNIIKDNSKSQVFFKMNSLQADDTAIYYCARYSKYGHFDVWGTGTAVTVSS VL: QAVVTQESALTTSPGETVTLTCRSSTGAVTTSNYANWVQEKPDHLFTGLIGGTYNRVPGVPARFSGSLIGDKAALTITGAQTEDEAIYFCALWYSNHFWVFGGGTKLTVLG	1.94
F2.42.9 (antibody, human IgG1, lambda, V domains shown, Human-murine chimeric IgG1, lambda) VH: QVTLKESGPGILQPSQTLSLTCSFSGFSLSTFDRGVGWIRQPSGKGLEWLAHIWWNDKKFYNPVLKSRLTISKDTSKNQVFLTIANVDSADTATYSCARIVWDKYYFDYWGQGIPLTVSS VL: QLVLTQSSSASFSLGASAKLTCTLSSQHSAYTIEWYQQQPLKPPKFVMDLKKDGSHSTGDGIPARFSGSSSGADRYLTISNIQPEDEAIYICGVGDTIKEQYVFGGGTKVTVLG	3.14
F1.7.6 (antibody, human IgG1, kappa, V domains shown, Human-murine chimeric IgG1, kappa) VH: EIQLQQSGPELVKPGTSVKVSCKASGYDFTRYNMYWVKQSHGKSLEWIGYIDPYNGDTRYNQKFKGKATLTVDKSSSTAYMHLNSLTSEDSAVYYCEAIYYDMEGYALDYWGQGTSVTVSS VL: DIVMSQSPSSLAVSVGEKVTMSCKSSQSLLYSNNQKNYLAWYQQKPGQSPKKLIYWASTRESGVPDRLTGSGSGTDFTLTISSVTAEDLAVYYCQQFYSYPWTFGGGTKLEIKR	2.88

Exam item: # query: OD450 of entry F1.172.13 (antibody, human IgG1, kappa, V domains shown, Human-murine chimeric IgG1, kappa) VH: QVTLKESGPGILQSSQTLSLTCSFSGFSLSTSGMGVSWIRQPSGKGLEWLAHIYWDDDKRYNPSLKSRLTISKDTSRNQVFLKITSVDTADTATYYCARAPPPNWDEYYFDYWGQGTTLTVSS VL: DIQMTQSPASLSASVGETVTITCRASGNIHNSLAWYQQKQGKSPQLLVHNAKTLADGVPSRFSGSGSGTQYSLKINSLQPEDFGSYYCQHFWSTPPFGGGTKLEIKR
Marked response: 2.87

Exam item: Subsequent entry: F1.192.1 (antibody, human IgG1, kappa, V domains shown, Human-murine chimeric IgG1, kappa) VH: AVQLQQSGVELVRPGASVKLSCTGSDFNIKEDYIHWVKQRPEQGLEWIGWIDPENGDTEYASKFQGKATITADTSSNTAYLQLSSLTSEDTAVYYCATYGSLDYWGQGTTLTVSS VL: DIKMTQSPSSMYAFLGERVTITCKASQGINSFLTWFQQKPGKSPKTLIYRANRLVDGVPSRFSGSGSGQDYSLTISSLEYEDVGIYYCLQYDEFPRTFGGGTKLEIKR
Marked response: 2.71

Exam item: Moving on to F1.257.3 (antibody, human IgG1, kappa, V domains shown, Human-murine chimeric IgG1, kappa) VH: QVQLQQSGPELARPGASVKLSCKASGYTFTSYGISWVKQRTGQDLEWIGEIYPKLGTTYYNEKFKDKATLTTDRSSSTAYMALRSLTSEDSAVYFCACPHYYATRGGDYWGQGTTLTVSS VL: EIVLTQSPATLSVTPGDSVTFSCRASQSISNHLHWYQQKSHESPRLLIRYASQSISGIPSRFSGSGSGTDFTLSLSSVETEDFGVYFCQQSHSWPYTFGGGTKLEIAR
Marked response: 2.83

Exam item: # iterate: F2.99.1 (antibody, human IgG1, lambda, V domains shown, Human-murine chimeric IgG1, lambda) VH: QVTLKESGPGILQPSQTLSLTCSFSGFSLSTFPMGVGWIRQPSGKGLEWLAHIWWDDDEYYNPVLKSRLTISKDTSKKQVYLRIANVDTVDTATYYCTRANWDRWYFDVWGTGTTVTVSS VL: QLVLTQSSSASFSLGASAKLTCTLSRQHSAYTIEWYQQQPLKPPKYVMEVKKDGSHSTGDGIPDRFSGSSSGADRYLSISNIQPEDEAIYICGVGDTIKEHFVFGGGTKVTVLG
Marked response: 2.1
